# assay.target: human BRD4 first bromodomain (BDI_K57-E168) (Homo sapiens (Human))
# measurement.protocol: TR-FRET bromodomain binding assay, BRD4 first bromodomain
Could you please report measured Ki for the items listed next?
Give bare numbers, in nM.

compound	Ki (nM)
CCS(=O)(=O)N(CCOC)c1ccc(Oc2ccc(F)cc2F)c(-c2cn(C)c(=O)c3[nH]ccc23)c1	295

Each compound below has a reported value. Please supply its Ki.
1. Cn1cc(-c2cc(S(C)(=O)=O)ccc2Oc2cccc3ccncc23)c2cc[nH]c2c1=O
2. CC(O)c1cc2c(-c3cc(S(C)(=O)=O)ccc3Oc3ccc(F)cc3F)cn(C)c(=O)c2[nH]1 (stereo not shown)

1: 70.4; 2: 12.1

The recorded Ki for Cn1cc(-c2cc(S(=O)(=O)C3CC3)ccc2Oc2ccc(F)cc2F)c2cc[nH]c2c1=O is 5

###

# assay.target: human BRD4 second bromodomain (BDII_E352-M457) (Homo sapiens (Human), UniProt O60885)
# measurement.protocol: TR-FRET bromodomain binding assay, BRD4 second bromodomain
Could you please report measured pKi for the items listed next?
Answers are plain numbers, as −log10 of the molar value.

Consider the worked cases shown below.
compound	assay.target	pKi
CCCS(=O)(=O)Nc1ccc(Oc2ccc(C#N)cc2)c(-c2cn(C)c(=O)c3[nH]ccc23)c1 [Example 93]	human BRD4 second bromodomain (BDII_E352-M457) (Homo sapiens (Human), UniProt O60885)	7.49
Cn1cc(-c2cc(S(C)(=O)=O)ccc2Oc2cccc(F)c2)c2cc[nH]c2c1=O [Example 150]	human BRD4 second bromodomain (BDII_E352-M457) (Homo sapiens (Human), UniProt O60885)	8.38
Cn1cc(-c2cc(S(N)(=O)=O)ccc2Oc2ccccc2)c2cc[nH]c2c1=O [Example 95]	human BRD4 second bromodomain (BDII_E352-M457) (Homo sapiens (Human), UniProt O60885)	8.96
Cn1cc(-c2cc(NS(C)(=O)=O)ccc2Oc2ccccc2C#N)c2cc[nH]c2c1=O [Example 25]	human BRD4 second bromodomain (BDII_E352-M457) (Homo sapiens (Human), UniProt O60885)	8.44
CCS(=O)(=O)c1ccc(O[C@H]2CC[C@@](C)(O)CC2)c(-c2cn(C)c(=O)c3[nH]ccc23)c1 [Example 211]	human BRD4 second bromodomain (BDII_E352-M457) (Homo sapiens (Human), UniProt O60885)	8.68
CCS(=O)(=O)c1ccc(OC2CCC(C)(O)CC2)c(-c2cn(C)c(=O)c3[nH]ccc23)c1 (stereo not shown) [Example 212]	human BRD4 second bromodomain (BDII_E352-M457) (Homo sapiens (Human), UniProt O60885)	8.89
CCS(=O)(=O)c1ccc(Oc2ccc(F)cc2F)c(-c2cn(C)c(=O)c3[nH]ncc23)c1 [Example 322]	human BRD4 second bromodomain (BDII_E352-M457) (Homo sapiens (Human), UniProt O60885)	7.34
Cn1cc(-c2cc(S(=O)(=O)C(F)(F)F)ccc2NCC2CC2)c2cc[nH]c2c1=O [Example 244]	human BRD4 second bromodomain (BDII_E352-M457) (Homo sapiens (Human), UniProt O60885)	7.13
CN1CCC(NC(=O)c2ccc(Oc3ccc(F)cc3F)c(-c3cn(C)c(=O)c4[nH]ccc34)c2)C1=O (stereo not shown) [Example 53]	human BRD4 second bromodomain (BDII_E352-M457) (Homo sapiens (Human), UniProt O60885)	8.27
Cn1nc(-c2ccccc2Oc2ccccc2)c2cc[nH]c2c1=O [Example 82]	human BRD4 second bromodomain (BDII_E352-M457) (Homo sapiens (Human), UniProt O60885)	6.74

Each compound below has a reported value. Please supply its pKi.
1. Cn1cc(-c2cc(S(C)(=O)=O)ccc2OC2Cc3ccccc3C2)c2cc[nH]c2c1=O [Example 277]
2. CCS(=O)(=O)c1ccc(N2CCCC2)c(-c2cn(C)c(=O)c3[nH]ccc23)c1 [Example 330]
3. Cn1cc(-c2cc(S(C)(=O)=O)ccc2Oc2cccc3nsnc23)c2cc[nH]c2c1=O [Example 171]
4. CCS(=O)(=O)c1ccc(OCC2CC2(F)F)c(-c2cn(C)c(=O)c3[nH]ccc23)c1 (stereo not shown) [Example 240]

1. 7.84
2. 8.34
3. 7.99
4. 8.55

Each compound below has a reported value. Please supply its pKi.
1. Cn1cc(-c2cc(S(=O)(=O)N3CCCC3)ccc2Oc2ccc(F)cc2F)c2cc[nH]c2c1=O [Example 299]
2. CN1CCC[C@H]1COc1ccc(S(C)(=O)=O)cc1-c1cn(C)c(=O)c2[nH]ccc12 [Example 222]

8.30
6.01

###

Could you please report measured Ki for the items listed next?
# assay.target: human BRD4 second bromodomain (BDII_E352-M457) (Homo sapiens (Human), UniProt O60885)
# measurement.protocol: TR-FRET bromodomain binding assay, BRD4 second bromodomain
Answers are plain numbers, in nM.

Consider the worked cases shown below.
molecule	readout.number
Cn1cc(-c2cc(C(=O)NCc3ccc(OC(F)(F)F)cc3)ccc2Oc2ccc(F)cc2F)c2cc[nH]c2c1=O [Example 126]	768
Cn1cc(-c2cc(NC(=O)CC(F)(F)F)ccc2Oc2ccc(F)cc2F)c2cc[nH]c2c1=O [Example 38]	257
Cn1cc(-c2cc(S(=O)(=O)N3CCOCC3)ccc2Oc2ccc(F)cc2F)c2cc[nH]c2c1=O [Example 293]	19.3
COC(=O)c1cc2c(-c3ccccc3Oc3ccccc3)cn(C)c(=O)c2n1C [Example 68]	2550
Cn1cc(-c2cc(C(F)(F)F)ccc2Oc2ccc(F)cc2F)c2cc[nH]c2c1=O [Example 275]	1130
CN(C)C1CCN(S(=O)(=O)c2ccc(OCC3CC3)c(-c3cn(C)c(=O)c4[nH]ccc34)c2)C1 (stereo not shown) [Example 310]	71.1

Each molecule below has a reported value. Please supply its Ki.
1. Cn1cc(-c2cc(S(C)(=O)=O)ccc2Oc2ccc3ncccc3c2)c2cc[nH]c2c1=O [Example 162]
2. CCS(=O)(=O)N(CCC(F)(F)F)c1ccc(Oc2ccc(F)cc2F)c(-c2cn(C)c(=O)c3[nH]ccc23)c1 [Example 346]
3. Cn1cc(-c2cc(S(C)(=O)=O)ccc2Oc2cccc3ccncc23)c2cc[nH]c2c1=O [Example 193]
4. CCS(=O)(=O)Nc1ccc(OC2CCC(F)(F)CC2)c(-c2cn(C)c(=O)c3[nH]ccc23)c1 [Example 101]
5. COC(=O)c1cc2c(-c3ccccc3Oc3ccccc3)cn(C)c(=O)c2[nH]1 [Example 67]
6. Cn1cc(-c2cc(S(C)(=O)=O)ccc2Oc2ccccc2Cl)c2cc[nH]c2c1=O [Example 152]
7. Cn1cc(-c2cc(S(C)(=O)=O)ccc2Oc2cc(F)ccc2F)c2cc[nH]c2c1=O [Example 173]
8. Cn1cc(-c2ccccc2Cc2ccccc2)c2cc[nH]c2c1=O [Example 195]

4.6
16
13.6
4.3
93.8
4.8
6.6
1020

Each molecule below has a reported value. Please supply its Ki.
1. CCS(=O)(=O)c1ccc(O[C@H]2CC[C@@H](OC)CC2)c(-c2cn(C)c(=O)c3[nH]ccc23)c1 [Example 248]
2. Cn1cc(-c2cc(S(C)(=O)=O)ccc2Oc2ccc(F)cc2F)c2cc(C(=O)NCC(F)(F)F)[nH]c2c1=O [Example 254]
3. Cn1cc(-c2cc(S(C)(=O)=O)ccc2Oc2ccc(C#N)cc2)c2cc[nH]c2c1=O [Example 156]
4. Cn1cc(-c2cc(S(C)(=O)=O)ccc2NC2CCOC2)c2cc[nH]c2c1=O (stereo not shown) [Example 167]
5. Cn1cc(-c2cc(S(=O)(=O)N3CCc4ccccc43)ccc2OCC2CC2)c2cc[nH]c2c1=O [Example 305]
6. Cn1cc(-c2ccc(OCC3CC3)c(-c3cn(C)c(=O)c4[nH]ccc34)c2)cn1 [Example 318]
7. CNS(=O)(=O)c1ccc(NCC2CC2)c(-c2cn(C)c(=O)c3[nH]ccc23)c1 [Example 239]

[1.3, 8.7, 20.9, 12.2, 25.7, 625, 2.4]

Each molecule below has a reported value. Please supply its Ki.
1. Cn1cc(-c2ccccc2Oc2ccccc2)c2cc(-c3ccccc3)[nH]c2c1=O [Example 88]
2. Cn1cc(-c2cc(NS(=O)(=O)CCF)ccc2Oc2ccc(F)cc2F)c2cc[nH]c2c1=O [Example 64]
3. Cn1cc(-c2cc(S(C)(=O)=O)ccc2OCC2CCCC2)c2cc[nH]c2c1=O [Example 214]
4. Cn1cc(-c2cc(S(C)(=O)=O)ccc2OC2CCCCCC2)c2cc[nH]c2c1=O [Example 220]
5. CCS(=O)(=O)N1CCN(C(=O)c2ccc(Oc3ccc(F)cc3F)c(-c3cn(C)c(=O)c4[nH]ccc34)c2)CC1 [Example 137]

236
63.3
1.7
1.2
8.9

Each molecule below has a reported value. Please supply its Ki.
1. Cn1cc(-c2cc(NS(C)(=O)=O)cnc2Oc2ccccc2)c2cc[nH]c2c1=O [Example 23]
2. Cn1cc(-c2cc(NS(C)(=O)=O)ccc2Oc2cccnc2)c2cc[nH]c2c1=O [Example 11]
3. CCNC(=O)c1cc2c(-c3cc(S(C)(=O)=O)ccc3Oc3ccc(F)cc3F)cn(C)c(=O)c2[nH]1 [Example 253]
4. Cn1cc(-c2cc(S(C)(=O)=O)ccc2Oc2cccc3ccccc23)c2cc[nH]c2c1=O [Example 185]
5. Cn1cc(-c2cc(S(C)(=O)=O)ccc2Oc2cccc3c2CCC3=O)c2cc[nH]c2c1=O [Example 175]

1. 0.75
2. 2.4
3. 1.2
4. 12.2
5. 17.8
